- study.system: human NK3 receptor (Homo sapiens, UniProt P29371)
- Sequence (P29371 whole entry): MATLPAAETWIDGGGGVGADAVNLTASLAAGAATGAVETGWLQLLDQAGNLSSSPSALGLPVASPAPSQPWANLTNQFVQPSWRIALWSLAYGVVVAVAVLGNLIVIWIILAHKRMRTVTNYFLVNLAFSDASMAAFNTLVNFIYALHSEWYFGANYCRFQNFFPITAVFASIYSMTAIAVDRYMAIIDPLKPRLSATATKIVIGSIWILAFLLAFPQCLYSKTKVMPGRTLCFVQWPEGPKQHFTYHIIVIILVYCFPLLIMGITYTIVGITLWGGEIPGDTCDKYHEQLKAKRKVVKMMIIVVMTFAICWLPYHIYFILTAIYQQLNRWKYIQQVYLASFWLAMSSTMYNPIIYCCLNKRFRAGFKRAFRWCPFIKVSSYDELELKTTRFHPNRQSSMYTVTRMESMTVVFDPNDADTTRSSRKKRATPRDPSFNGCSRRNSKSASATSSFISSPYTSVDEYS
- method.notes: Binding potency of the test substances to NK3-receptors in vitro ([3H]-SR 142801 displacement)
- Design: expressed in transfected cells; host or cells: CHO cells (membrane preparation)
- condition.info: human NK3-receptor in CHO cell membranes, [3H]-SR 142801 (osanetant); average of at least three measurements; read-out: pKi, binding potency to NK3-receptors (converted)
Ki class ranges: low range: < 0.01 µM; mid range: ≥ 0.01 µM and < 0.06 µM; high range: ≥ 0.06 µM

Each compound maps to one class by Ki. Which class for CN(C)C(=O)C1(N2CCCCC2)CCN(CCC(CN(C)C(=O)C2CCOCC2)c2ccc(Cl)c(Cl)c2)CC1 (centres unmarked) [compound 53] ?
low range

Each compound maps to one class by Ki. Which class for CN(C)C(=O)C1(N2CCCCC2)CCN(CCC(CN(C)C(=O)c2cc3ccccc3[nH]2)c2ccc(Cl)c(Cl)c2)CC1 (centres unmarked) [compound 39] ?
mid range

Each compound maps to one class by Ki. Which class for CN(C)C(=O)C1(N2CCCCC2)CCN(CCC(CN(C)C(=O)c2ccccc2C(F)(F)F)c2ccc(Cl)c(Cl)c2)CC1 (centres unmarked) [compound 77] ?
high range

Each compound maps to one class by Ki. Which class for CN(C)C(=O)C1(N2CCCCC2)CCN(CCC(CN(C)C(=O)c2cc(C(F)(F)F)cc(C(F)(F)F)c2)c2ccc(Cl)c(Cl)c2)CC1 (centres unmarked) [compound 70] ?
high range

Each compound maps to one class by Ki. Which class for CN(C)C(=O)C1(N2CCCCC2)CCN(CCC(CN(C)C(=O)C2CC2c2ccccc2)c2ccc(Cl)c(Cl)c2)CC1 (centres unmarked) [compound 90] ?
high range

Continuing:
Each compound maps to one class by Ki. Which class for CN(C)C(=O)C1(N2CCCCC2)CCN(CCC(CN(C)C(=O)Cc2ccc(C(F)(F)F)c(C(F)(F)F)c2)c2ccc(Cl)c(Cl)c2)CC1 (centres unmarked) [compound 56] ?
low range

Each compound maps to one class by Ki. Which class for CN(C)C(=O)C1(N2CCCCC2)CCN(CC[C@H](CN(C)C(=O)c2ccc(O)cc2)c2ccc(Cl)c(Cl)c2)CC1 [compound 6] ?
low range

Each compound maps to one class by Ki. Which class for COc1ccc(C(=O)N(C)CC(CCN2CCC(C(=O)N(C)C)(N3CCCCC3)CC2)c2ccc(Cl)c(Cl)c2)cc1 (centres unmarked) [compound 85] ?
mid range

Each compound maps to one class by Ki. Which class for CN(C)C(=O)C1(N2CCCCC2)CCN(CCC(CN(C)C(=O)c2ccccc2C(=O)O)c2ccc(Cl)c(Cl)c2)CC1 (centres unmarked) [compound 25] ?
high range

Each compound maps to one class by Ki. Which class for CN(C)C(=O)C1(N2CCCCC2)CCN(CCC(CN(C)C(=O)c2ccccc2F)c2ccc(Cl)c(Cl)c2)CC1 (centres unmarked) [compound 72] ?
mid range

Each compound maps to one class by Ki. Which class for CN(C)C(=O)C1(N2CCCCC2)CCN(CCC(CN(C)C(=O)c2ccncc2)c2ccc(Cl)c(Cl)c2)CC1 (centres unmarked) [compound 44] ?
mid range

Each compound maps to one class by Ki. Which class for CN(C)C(=O)C1(N2CCCCC2)CCN(CCC(CN(C)C(=O)c2ccc(Cl)nc2)c2ccc(Cl)c(Cl)c2)CC1 (centres unmarked) [compound 18] ?
low range

Each compound maps to one class by Ki. Which class for CN(C)C(=O)C1CCCCN1C1CCN(CCC(CN(C)C(=O)c2ccccc2)c2ccc(Cl)c(Cl)c2)CC1 (centres unmarked) [compound 97] ?
high range

Values compiled from patent US20070219214A1.
